# Test system: Escherichia coli TOP10
# ASSAY REMARKS: shrunken log2 fold change of peptide-encoding DNA abundance (4.5 h post-induction vs induction); higher = less antimicrobial activity (less host growth inhibition)
# ASSAY CONDITIONS: time post-induction: 4.5 h; library: site-saturation at positions 5, 18, 19, 20
shrunken log2 fold change overview
Format: numeric value only, no unit, no commentary.

// shrunken log2 fold change lookup, key: `RRIRWRPPRLPRPRPRPFTSPRP`
-0.0735

// shrunken log2 fold change lookup, key: `RRIRQRPPRLPRPRPRPYQIPRP`
-0.227

// shrunken log2 fold change lookup, key: `RRIRRRPPRLPRPRPRPKHWPRP`
0.334

---

# Test system: Escherichia coli TOP10
# ASSAY REMARKS: shrunken log2 fold change of peptide-encoding DNA abundance (4.5 h post-induction vs induction); higher = less antimicrobial activity (less host growth inhibition)
# ASSAY CONDITIONS: time post-induction: 4.5 h; library: site-saturation at positions 5, 18, 19, 20
ENDPOINT: shrunken log2 fold change

For orientation, consider the following solved cases.
RRIRARPPRLPRPRPRPTCDPRP	0.534
RRIRARPPRLPRPRPRPRLAPRP	1.53
RRIRRRPPRLPRPRPRPCWPPRP	0.0865
RRIRARPPRLPRPRPRPASKPRP	0.0747

// shrunken log2 fold change lookup, key: `RRIRHRPPRLPRPRPRPGPQPRP`
0.0368

// shrunken log2 fold change lookup, key: `RRIRDRPPRLPRPRPRPKLEPRP`
0.434

// shrunken log2 fold change lookup, key: `RRIRTRPPRLPRPRPRPALIPRP`
0.0272

---

shrunken log2 fold change overview
# Tested on: Escherichia coli TOP10;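 further: peptides expressed intracellularly from a pBAD plasmid library in pooled LB shake-flask culture, induced with 0.3% L-arabinose, DNA abundance read by NGS, three biological replicates, DESeq2 with apeglm shrinkage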
# ASSAY REMARKS: shrunken log2 fold change of peptide-encoding DNA abundance (4.5 h post-induction vs induction); higher = less antimicrobial activity (less host growth inhibition)
# ASSAY CONDITIONS: time post-induction: 4.5 h; library: site-saturation at positions 5, 18, 19, 20
Format: numeric value only, no unit, no commentary.

RRIRDRPPRLPRPRPRPRFHPRP	-0.239

// shrunken log2 fold change lookup, key: `RRIRLRPPRLPRPRPRPTTFPRP`
0.0632

// shrunken log2 fold change lookup, key: `RRIRWRPPRLPRPRPRPWSKPRP`
-0.191

// shrunken log2 fold change lookup, key: `RRIRYRPPRLPRPRPRPQGKPRP`
-0.00664

// shrunken log2 fold change lookup, key: `RRIRWRPPRLPRPRPRPSMYPRP`
-0.326

// shrunken log2 fold change lookup, key: `RRIRKRPPRLPRPRPRPMVAPRP`
0.629

// shrunken log2 fold change lookup, key: `RRIRRRPPRLPRPRPRPIRTPRP`
0.4

// shrunken log2 fold change lookup, key: `RRIRRRPPRLPRPRPRPNSLPRP`
-0.652

// shrunken log2 fold change lookup, key: `RRIRTRPPRLPRPRPRPWMCPRP`
0.0404

// shrunken log2 fold change lookup, key: `RRIRYRPPRLPRPRPRPKHHPRP`
-0.986

// shrunken log2 fold change lookup, key: `RRIRPRPPRLPRPRPRPRQRPRP`
0.382

// shrunken log2 fold change lookup, key: `RRIRSRPPRLPRPRPRPCHLPRP`
-0.0433

// shrunken log2 fold change lookup, key: `RRIRTRPPRLPRPRPRPEMLPRP`
0.0362

// shrunken log2 fold change lookup, key: `RRIRFRPPRLPRPRPRPWHPPRP`
-0.409

// shrunken log2 fold change lookup, key: `RRIRIRPPRLPRPRPRPYRRPRP`
-0.648

// shrunken log2 fold change lookup, key: `RRIRKRPPRLPRPRPRPQPWPRP`
0.805

// shrunken log2 fold change lookup, key: `RRIRSRPPRLPRPRPRPINTPRP`
-0.648

// shrunken log2 fold change lookup, key: `RRIRDRPPRLPRPRPRPDYQPRP`
0.0708

// shrunken log2 fold change lookup, key: `RRIRGRPPRLPRPRPRPFMPPRP`
-0.0647

// shrunken log2 fold change lookup, key: `RRIRNRPPRLPRPRPRPCIYPRP`
-0.599

// shrunken log2 fold change lookup, key: `RRIRHRPPRLPRPRPRPHMNPRP`
-0.491

// shrunken log2 fold change lookup, key: `RRIRMRPPRLPRPRPRPTYFPRP`
-0.0299
